ASSAY_NOTES: Ratio of melphalan IC50 to compound IC50 for human CEM cells after 48 to 72 hrs by Coulter counter cell counting
MEASUREMENT_PARAMETERS: CCRF-CEM (CEM) cells
PARAMETER: selectivity ratio

Exercise: Given the entry `O=Cc1c(-c2cc3ccccc3oc2=O)nc2sc(Cc3ccc(Cl)cc3)nn12` , report its measured selectivity ratio.
Key: 3

Measured values drawn from ChEMBL document CHEMBL3351601 for this set.
